# credit: the supplement of paper PMC9170038

Tested on: K4 kissing-loop RNA reporter
Test: apparent KD of K4 kissing-loop reporter; higher = weaker reporter binding
Settings: Eterna round: R107; input ligand: tryptophan 2.4 mM
Quick list: apparent KD of K4 kissing-loop reporter per entry.
attribute measured: apparent KD of K4 kissing-loop reporter (nM)

| residue codes | readout units | numeric value |
| --- | --- | --- |
| CUCGAGUGAUGUUCCUUUAUUUAUACAGAUACCAGUGAAUUUUAACACCCUUGGCAGCUGGUUGUAUCUUUGUUUUUUACACAUG [JR_Nu_ExcTheophyA_Sub025] | nM | 155 |
| GGAUAGGAUAGAGGAUAUGGUUUAUGCAGGAAUAACUUAUUGUGUAAAUCCAUAGGGAGUGAUGUUCCAGAAGGCUGUCCUAUCG [MatMod 14 - Jieux - Exclusion - FMN B] | nM | 183 |
| AAUGCAUAGUGAAGGAGCGCGUAUAGCAGUGAUGUUGCUUACUUAUUAUUAUAUUAAUUGACGCAGGUAGGUCGCACUUUGCAUA [JR_ExcArginiB_Sub022] | nM | 156 |

----------
System: K4 kissing-loop RNA reporter
Assay: apparent KD of K4 kissing-loop reporter; higher = weaker reporter binding
Conditions: Eterna round: R107; input ligand: none
Quick list: apparent KD of K4 kissing-loop reporter per entry.

| residue codes | apparent KD of K4 kissing-loop reporter [nM] |
| --- | --- |
| ACGACGGCAGCUCAGUGAUGUUGGGCAUUACGAGGACCGGUACGGCCGCCACUCGCUGCUUUGAUCCGUGGAUGAACCUCAGCAU [theeternabot_sameState_KL_Trp_A_13] | 601 |
| CCUGUGUGUGAAGGAUAUAUUUCGCAUUAAAACUAGUGAUGUUGGUAAAUGGCACAAUCCGUAGCAAUAGAAGGUCACUCCGGAA [theeternabot_sameState_KL_FMN_B_22] | 793 |
| ACUGCCAUUGCGGCCGCCACUAUCUCACUUUGCGAAUCUGCACCGACUGAGUGAUGUUCGGUAAAUAGGACCGGGCAAUGGGCCG [theeternabot_sameState_KL_Trp_B_26] | 633 |

----------
Quick list: apparent KD of K4 kissing-loop reporter per entry.
System: K4 kissing-loop RNA reporter
Assay: apparent KD of K4 kissing-loop reporter; higher = weaker reporter binding
Details: Eterna round: R107; input ligand: arginine 13.2 mM
attribute measured: apparent KD of K4 kissing-loop reporter

| residue codes | result |
| --- | --- |
| GCCGUACGCAUGGAUACCAGUCAAGAUCAGUGAUGUUGAUCUUUUAUAGAGCCUUCAUUAGACCCUUGGCAGCCAUGCGUACGGC | 0.237 µM |
| UGAUACCAGACGGCCGCCACUUCUGCAAGUCAAAGACUUGCUAAGGGAAUCGUCCAGUGAUGUUGGAGGACCGGGUCUGGUAUCU [FiskerMod 2 - Jieux - Exclusion - Tryptophan B] | 0.823 µM |
| AUGUACACGAUAGUGUACUCCUAGUGAUGUUAGGAUAUGCAGAUAUGCAGAAGGAACAAGUCAUCUGACAAUAGUCGGAUGACAA [FmnAX 9 #OpenEnded #K4Early] | 0.0925 µM |
| AUAACAAUCUGAAGGAGCGAGAAAGCAGUGAUGUUGCAAAGGCGAGUGAUGUUCGCAAUAACUCAGGUAGGUCGCAGAAACAAGA [Same State Arginine B] | 0.142 µM |
| ACGGAUUCGAAUACCGAAUGAAAUAGGGAUACCAGCACGUGAACGUGCCCUUGGCAGCCCAGCCCAGUGAUGUUGGGCCCAUGGC [Biso] | 0.185 µM |
| AAGUGAUGUUGUAGUGAUGUUGUGAUGUUGCAGGAUAUAUAGUGAUGUAGAAGGGUAAGUACUUAUUUUUUUUUUGAGUGAUGUU [vcbczrmullin] | 0.045 µM |

----------
Tested on: MS2 coat protein
Assay: apparent KD of MS2 coat protein; higher = weaker reporter binding
Conditions: Eterna round: R107; input ligand: tryptophan 2.4 mM

| residue codes | apparent KD of MS2 coat protein / nM |
| --- | --- |
| GCACAAGAUGGAAGGAGCGCUGGUAUAAGUCACAUGAGGAUCACCCAUGUGCUCCUUGCCGAGCAGGUAGGUCGCCAUCUUGUGC [SSAB NP+V+V2 #5] | 68.1 |
| UGUAUGGACUGAAGGAGCGGGUAAUAAACCUGAGGAUCACCCAGGUAAUAGGCGAAAGCCACCCAGGUAGGUCGCAGUCCAUACU | 13.2 |
| ACAUGAGGAUCACCCAUGUUCCUCGCCGAUACCAGUGAAGAAGAACGCCCUUGGCAGCGGAAAGAGUAUUUUGGAGAUGAGGUAC [6.X] | 124 |
| GCAUCCUAGUCGGCCGCCACUGGUACGAAUACCUUCACCCGUGUGCACAUGAGGAUCACCCAUGUCAGGACCGGGACUAGGAUGC [SSTryp B #23] | 9.61 |
| AUGUGCAAUACGGAUACCAGCCCGUGUAGAUACAUGAGGAUCACCCAUGUCAAUGUAAAUGGCCCUUGGCAGCCGUUUGGGAGGC [theeternabot_sameState_MS2_Theo_B_35] | 19.4 |
| GACCGAUUAUAGCGCGAUUGUCUUGUGGAAGGAGCGCAGAGGGCUGCAGGUAGGUCGCCACAUGAGGAUCACCCAUGUCAGGAUA [Ananvediri] | 30.9 |
| GACCUUGCGGGCGCCCGCAAGGUUGCGGAUACCAGCGAGGUCCAUCGCCCUUGGCAGCCGAACAUGAGGAUCACCCAUGUCGGAC [Same State - Theophylline A Attempt #3 (HarryS)] | 11.2 |
| AGACAUGAGGAUCACCCAUGUAGCACGGAUACCAGAUCCAGAUUUAUCCCUUGGCAGCUGUGGUACAGCGUUGCAACGCUCCUAG [Exclusion - Theophylline A (Freestyle 16)] | 17.1 |
| GCAUCCUAGUCGGCCGCCACUGGGUGUACCCAGUGCUGGUACAAACAUGAGGAUCACCCAUGUACCAGGACCGGGACUAGGAUGC [(Trp1)-(MT2)''-(T1)'-(MT2)'-(Ms2)-(Trp2)_Design4] | 13.8 |
| CUAUAAUGAAAACAUUAUAGAGUGGGUGAACGAGGACCGGUACGGCCGCCACUCGGACAUGAGGAUCACCCAUGUCCAUGUGAAA [AstrosExyTryA#24] | 31.9 |
| UAAAACAUGAGGAUCACCCAUGUAAUUGAUACCAGAGUGAUGAUCCUCCCUUGGCAGCAAAUAACGCAUUGGAAACAAUGCGAAA [Mat - Same State Theophlline A - Mod of Eli - D26] | 47.8 |
| UGUAUGUGAUGGGAUACCAGACCAGCUGGUGAUACAUGAGGAUCACCCAUGUAAAUUUGGGUCCCUUGGCAGCCCAUCGCAUACU [SSTheo B #25] | 23.9 |

----------
Quick list: apparent KD of K4 kissing-loop reporter per entry.
System: K4 kissing-loop RNA reporter
Test: apparent KD of K4 kissing-loop reporter; higher = weaker reporter binding
Details: Eterna round: R107; input ligand: theophylline 20 uM

| residue codes | readout units | apparent KD of K4 kissing-loop reporter |
| --- | --- | --- |
| CCUGCAGCUGUUACCGAGGGAUGCUACGGACGAGGACCGGUACGGCCGCCACUCGCCAGUGAUGUUGGUGAGGGAGGACGUUACU [KL-XTryp-A21] | nM | 103 |
| AAUAUACAGGGAAGGAGCGCCGUCCAGUGAUGUUGGAGUUAAAUACCAGUGAUGUUGGUUAGGCAGGUAGGUCGCCCUAAAGUAU [Exclusion Arginine B Gf 2] | nM | 102 |
| ACUUGAGCACAAAGCACACCAAGCAGUAGGUAGGAUAUCCGGCUUAGGAGAAGGACCAUGCAGUGAUGUUGCAUGCUCCUCCAUG [Onraordi] | nM | 102 |
| GGUAGCAUGGCGGCCGCCACUAAGAGAGUGAUGUUCUCUUAGUUUUUUGAUGUGUUAUCAAUUCUUAGGACCGGGCCAUGCUACC | nM | 99.8 |

----------
Test system: K4 kissing-loop RNA reporter;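 note: bound reporter read as fluorescence of individual clusters on recovered sequencing chips by microscopy, with normalized cluster intensities fitted with a binding model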
Test: apparent KD of K4 kissing-loop reporter; higher = weaker reporter binding
Settings: Eterna round: R107; input ligand: tryptophan 2.4 mM
Quick list: apparent KD of K4 kissing-loop reporter per entry.
attribute measured: apparent KD of K4 kissing-loop reporter (nM)

| residue codes | target under test | numeric value |
| --- | --- | --- |
| CGUUCCUCUGUCGAUACCAGCUUCAGUUGGCGGCCAGUGAUGUUGGUAUCGCCGAUGCCAAGCCCUUGGCAGCGACAGGAGACCC [Usleanza] | K4 kissing-loop RNA reporter | 163 |
| UAAUUUAUCGCAGGAUAUAGCCAUAAACCGGUCCUAAGGGACCUUCUGGGCAGUGAUGUUGCCCGGCUAGAAGGGCGAGUUCACC [Anenlagema] | K4 kissing-loop RNA reporter | 105 |
| GCCGUAGAUUGAAGGAGCGUGGAACUAUGGCUUGAACAGUGAUGUUGUUUAUCUAGGUAGCCACAGGUAGGUCGCAAUCUACGGC | K4 kissing-loop RNA reporter | 178 |
| CAUAGGAAACUAUGUUUCUCUCUUACUGAAGGAGCGCGUGAAAACGCAGGUAGGUCGCAGAUUUUGAGAGUGAUGUUCUCAAUAA [Ex Arginine A K4 18] | K4 kissing-loop RNA reporter | 91.7 |
| UGAUACCAGACUGAUACCAGCCAGUGAUGUUGGCUAAUCCAAGAAGGAGUCAAAGACUCCGGCCCUUGGCAGCAGUCUGGUAUCU [TheoBX 3 #SwitchBubble #StaticStem] | K4 kissing-loop RNA reporter | 109 |
